# Measured Target: CDK9 (Homo sapiens)
# Construct: host or cells: HEK293-CDK9-Hibit
# Sequence (P50750 whole entry): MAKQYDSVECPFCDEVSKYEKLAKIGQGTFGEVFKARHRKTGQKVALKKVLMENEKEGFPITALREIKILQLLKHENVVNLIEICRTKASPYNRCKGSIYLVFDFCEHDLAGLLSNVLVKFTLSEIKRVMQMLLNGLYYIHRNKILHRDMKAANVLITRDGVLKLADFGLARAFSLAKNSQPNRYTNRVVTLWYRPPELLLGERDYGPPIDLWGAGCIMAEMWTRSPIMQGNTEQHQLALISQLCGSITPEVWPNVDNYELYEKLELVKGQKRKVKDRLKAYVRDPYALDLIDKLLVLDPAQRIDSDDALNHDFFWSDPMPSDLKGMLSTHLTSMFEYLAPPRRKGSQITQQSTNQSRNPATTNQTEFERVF
# Assay: HiBit Assay Protocol for CDK9 (HIBIT protein quantification, degradation)
# Type: cell-based
# Measurement Context: 6 h, HEK293-CDK9-Hibit cells, compound treatment for 6 hours; read-out: CDK9 HIBIT Protein Quantification Maximum
Measure Name: Dmax (%)
Only the number, expressed in %, is required.

# count of solved cases: 3
Value lookup for Dmax; key = CC(C)[C@@H]1CN([C@H](C)c2cccc(S(=O)(=O)N3CC[C@H](Nc4ncc5c(n4)N([C@@H]4CCC[C@@H](O)C4)C(=O)C54CC4)[C@H](F)C3)c2)CCN1c1ccc2c(N3CCC(=O)NC3=O)nn(C)c2c1 [Compound 204]
15

Now the same for CC(C)[C@H]1CN([C@@H](C)c2cccc(S(=O)(=O)N3CC[C@H](Nc4ncc5c(n4)N([C@@H]4CCC[C@@H](O)C4)C(=O)C54CC4)[C@H](F)C3)c2)CCN1c1ccc2c(N3CCC(=O)NC3=O)nn(C)c2c1 (single isomer, unassigned) [Compound 202]
20

Now the same for C[C@@H]1CN(S(=O)(=O)c2cccc(CN3CCC(c4ccc5c(N6CCC(=O)NC6=O)nn(C)c5c4)CC3)c2)CC[C@H]1Nc1ncc2c(n1)N([C@@H]1CCC[C@@H](O)C1)C(=O)C21CC1 [Compound 154]
15

***
Value lookup for Dmax; key = CC1CCCC1N1C(=O)C2(CC2)c2cnc(NC3CCN(S(=O)(=O)N4CC5(CCN(C(=O)CCc6ccc7c(c6)n(C)c(=O)n7C6CCC(=O)NC6=O)CC5)C4)CC3)nc21 (stereo not shown) [Compound 59]
17
